Reference source: paper PMC7307922

- subject_of_test: UniProt:Q9NQS5
- Sequence (Q9NQS5 whole entry): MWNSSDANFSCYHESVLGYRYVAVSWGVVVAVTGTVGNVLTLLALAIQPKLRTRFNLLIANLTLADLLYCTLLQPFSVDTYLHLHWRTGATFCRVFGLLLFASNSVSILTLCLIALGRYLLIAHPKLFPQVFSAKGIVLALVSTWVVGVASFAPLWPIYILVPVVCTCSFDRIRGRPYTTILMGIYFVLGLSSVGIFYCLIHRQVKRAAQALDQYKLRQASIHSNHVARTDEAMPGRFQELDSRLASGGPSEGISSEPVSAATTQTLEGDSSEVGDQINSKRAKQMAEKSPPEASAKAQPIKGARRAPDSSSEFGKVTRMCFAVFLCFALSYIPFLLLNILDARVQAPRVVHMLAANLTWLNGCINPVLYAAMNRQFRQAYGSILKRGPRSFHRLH
- test_summary: GPR84 counterscreen, cAMP assay
- Assay type: cell-based
- condition_description: 10 μM
Answer each item with its documented GPR84, agonist, cAMP assay.
# answer = value followed by unit

Recorded GPR84, agonist, cAMP assay of CC1=C(C(=O)Nc2cc(Cl)ccc2Cl)C(C2CCCC2)C2=C(CCCC2=O)N1 (stereo not shown) , please. 0±1%

For CCCC1C(C(=O)Nc2cc(Cl)ccc2Cl)=C(C)NC2=C1C(=O)CCC2 (stereo not shown) , what is its reported GPR84, agonist, cAMP assay? 1±4%

Given CC1=C(C(=O)Nc2cc(Cl)ccc2Cl)C(c2ccco2)C2=C(CCCC2=O)N1 (stereo not shown) [Compound 16, reference compound] , state its recorded GPR84, agonist, cAMP assay. 2±4%

Item CC1=C(C(=O)Nc2ccccc2C)C(c2ccco2)C2=C(CCCC2=O)N1 (stereo not shown) [Compound 1, reference compound] has what recorded GPR84, agonist, cAMP assay? 1±7%
